- Tested on: Fibroblast
- EXPERIMENT: Multiplex assay against human fibroblast
- Format: toxicity, cell-based
- PROTOCOL_CONDITIONS: 12 h, 10 µM, compound concentration 10 uM, replicate 1
Label scheme for Population Fragmented Nuclei (%): lower than 30% is f, 30% and above is t.

CCCn1c(=O)c2[nH]c(-c3cnn(Cc4cccc(C(F)(F)F)c4)c3)nc2n(CC)c1=O	t

(Q) Has "Cc1cn(-c2cc(NC(=O)c3ccc(C)c(Nc4nccc(-c5cccnc5)n4)c3)cc(C(F)(F)F)c2)cn1" a recorded Population Fragmented Nuclei (%) greater than or equal to 30%?
(A) t

(Q) Has "O=C(Nc1ccc(-c2ccnc(Nc3ccc(N4CCOCC4)cc3)n2)cc1)[C@@H]1CCCN1" a recorded Population Fragmented Nuclei (%) greater than or equal to 30%?
(A) t

(Q) Has "COc1ccc(S(=O)(=O)N(CCO)c2ccccc2CN(C)C/C=C/c2ccc(Cl)cc2)cc1.O=P(O)(O)O" a recorded Population Fragmented Nuclei (%) greater than or equal to 30%?
(A) t

(Q) Has "NC(=O)c1cccc(-c2cc(Nc3ccc(OC(F)(F)F)cc3)ncn2)c1" a recorded Population Fragmented Nuclei (%) greater than or equal to 30%?
(A) f

(Q) Has "COc1cc(N2CCN(C)CC2)ccc1Nc1ncc2c(n1)N(C)c1ccccc1C(=O)N2C" a recorded Population Fragmented Nuclei (%) greater than or equal to 30%?
(A) t

(Q) Has CN1CCC(=C2c3ccccc3CC(=O)c3sccc32)CC1.O=C(O)/C=C/C(=O)O [KETOTIFEN FUMARATE] a recorded Population Fragmented Nuclei (%) greater than or equal to 30%?
(A) f

(Q) Has "O=C(Nc1ccc(Cl)cc1)Nc1cccc(-c2cccc(N3CCCC3)n2)c1" a recorded Population Fragmented Nuclei (%) greater than or equal to 30%?
(A) f

Ref: ChEMBL document CHEMBL4689842
